System: K-ATP channels in DA neurones
ASSAY: K-ATP channel mediated response of DA neurones to mitochondrial inhibitors
Assay type: cell-based, mouse
COND: rotenone; read-out: EC50 of K-ATP channel sensitivity
ATTRIBUTE MEASURED: EC50

# EC50 of "C=C(C)[C@H]1Cc2c(ccc3c2O[C@@H]2COc4cc(OC)c(OC)cc4[C@@H]2C3=O)O1" = ~15 nM
